system: Raji; test: Ability to inhibit human Raji tumor cell proliferation by 50%; assay type: functional; settings: read-out: ID50 (the source's name)
MEASURED_PROPERTY: IC50 (µg/mL)

C/C(=C\CO)CC1=CC(=O)C(C)(C)O1 ... 16.6
C/C(=C\COc1ccc2ccc(=O)oc2c1)C1=CC(=O)C(C)(C)O1 [GEIPARVARIN] ... 2.19

a = C/C(=C\COc1ccc2ccc(=O)oc2c1)C1=CC(=O)C2(CCCCC2)O1
b = COc1ccccc1C1=CC(=O)C(C)(C)O1
Consider entries a and b . Which has the numerically lower IC50? Returns: label corresponding to the selected item.
a

I = O=C1C=C(c2ccccc2)OC1
II = CCC1(C)OC(/C(C)=C/COc2ccc3ccc(=O)oc3c2)=CC1=O (configuration not stated)
III = CC1=CC(=N)C(c2ccccc2)(c2ccccc2)O1
Endpoint returns the given molecules ordered by ascending IC50. Please express your ranking as an ordered list of the labels.
II, III, I

====

Listing of entries alongside the reported IC50.
system: CCRF-CEM; test: Ability to inhibit human CEM tumor cell proliferation by 50%; format: functional; settings: read-out: ID50 (the source's name)
Report as a plain number; the unit µg/mL is understood.

C/C(=C\COc1ccc2ccc(=O)oc2c1)C1=CC(=N)C(C)(C)O1 ... 18.8

So what does the record say about IC50 for C/C(=C\COc1ccc2ccc(=O)oc2c1)C1=CC(=O)C(C)(C)O1 ?
2

====

tested on: Raji; experiment: Ability to inhibit human Raji tumor cell proliferation by 50%; type: functional; conditions: read-out: ID50 (the source's name)
MEASURED_PROPERTY: IC50 (µg/mL)

1 = C/C(=C\COc1ccc2ccc(=O)oc2c1)C1=CC(=O)C(C)O1 (stereo not given)
2 = C/C(=C\COc1ccc2ccc(=O)oc2c1)C1=CC(=N)C(C)(C)O1
3 = CCC1OC(/C(C)=C/COc2ccc3ccc(=O)oc3c2)=CC1=O (stereo not given)
4 = CCC1(C)OC(/C(C)=C/COc2ccc3ccc(=O)oc3c2)=CC1=N (stereo not given)
Rank the 4 molecules shown above by IC50, smallest number first. Please express your ranking as an ordered list of the labels.
3, 1, 4, 2

====

system: CCRF-CEM; assay: Ability to inhibit human CEM tumor cell proliferation by 50%; type: functional; conditions: read-out: ID50 (the source's name)
MEASURED_PROPERTY: IC50 (µg/mL)

CCC1(C)OC(/C(C)=C/COc2ccc3ccc(=O)oc3c2)=CC1=N (configuration not stated) ... 3.57
C/C(=C\COc1ccc2ccc(=O)oc2c1)C1=CC(=O)C(C)O1 (configuration not stated) ... 3.56
C/C(=C\COc1ccc2ccc(=O)oc2c1)C1=CC(=N)C2(CCCCC2)O1 ... 4.95

A = O=C1C=C(c2ccccc2)OC1
B = C/C(=C\COc1ccc2ccc(=O)oc2c1)C1=CC(=O)C2(CCCCC2)O1
Consider entries A and B . Which has the numerically lower IC50? Returns: label corresponding to the selected item.
B

====

Listing of entries alongside the reported IC50.
system: Raji; test: Ability to inhibit human Raji tumor cell proliferation by 50%; assay type: functional; conditions: read-out: ID50 (the source's name)

C/C(=C\COc1ccc2ccc(=O)oc2c1)C1=CC(=N)C2(CCCCC2)O1 ... 23.5 µg/mL
CC(C)CC1=CC(=N)C(C)(C)O1.O=C(O)C(=O)O ... > 100 µg/mL
COc1ccccc1C1=CC(=O)CO1 ... > 100 µg/mL
CC1(C)OC(c2ccccc2)=CC1=N ... > 100 µg/mL

// below: IC50 requested for another compound
Notebook: pull reported IC50 for Raji, entry CC(C)CC1=CC(=N)C(C)(C)O1
> 100 µg/mL
